# Experimental context: bacteroides thetaiotaomicron, 12 h, 2 µM
# Description: The drug is tested on Bacteroides thetaiotaomicron strain: 7330 for biotransformation. The drug concentrations were measured before and after a 12-h incubation by liquid-chromatography-coupled mass spectrometry (LC–MS)
Endpoint name: Bacterial Biotransformation

Recorded Bacterial Biotransformation, per entry:
{"Molecule": "CCOc1ccc2nc(S(N)(=O)=O)sc2c1 [ETHOXZOLAMIDE]", "Bacterial Biotransformation": "Compound metabolized"}
{"Molecule": "CC(C)NCC(O)COc1ccc(CCOCC2CC2)cc1 (stereo unspecified)", "Bacterial Biotransformation": "Compound NOT metabolized"}
{"Molecule": "COC(=O)[C@H](c1ccccc1Cl)N1CCc2sccc2C1.O=S(=O)(O)O [CLOPIDOGREL BISULFATE]", "Bacterial Biotransformation": "Compound metabolized"}
{"Molecule": "C[C@@H](c1ncncc1F)[C@](O)(Cn1cncn1)c1ccc(F)cc1F", "Bacterial Biotransformation": "Compound metabolized"}
{"Molecule": "O=C1CC2(CCCC2)CC(=O)N1CCCCN1CCN(c2ncccn2)CC1", "Bacterial Biotransformation": "Compound NOT metabolized"}

Let us move to another entry and its Bacterial Biotransformation.
## Task Look at this molecule and give its reported Bacterial Biotransformation. CC(C)(Oc1ccc(CCNC(=O)c2ccc(Cl)cc2)cc1)C(=O)O [BEZAFIBRATE]
## Result Compound metabolized

###

# Experiment summary: The drug is tested on Bacteroides uniformis strain: ATCC8492 for biotransformation. The drug concentrations were measured before and after a 12-h incubation by liquid-chromatography-coupled mass spectrometry (LC–MS)
# Experimental context: 2 µM
Endpoint name: Bacterial Biotransformation

Past entries and their recorded results:
{"Molecule": "COc1c2occc2cc2ccc(=O)oc12", "Bacterial Biotransformation": "Compound metabolized"}
{"Molecule": "C#C[C@]1(OC(C)=O)CC[C@H]2[C@@H]3CCC4=CC(=O)CC[C@@H]4[C@H]3CC[C@@]21C [NORETHINDRONE ACETATE]", "Bacterial Biotransformation": "Compound metabolized"}
{"Molecule": "CCC(COC(=O)c1cc(OC)c(OC)c(OC)c1)(c1ccccc1)N(C)C.O=C(O)/C=C\\C(=O)O (stereo not drawn)", "Bacterial Biotransformation": "Compound metabolized"}
{"Molecule": "CC(=O)CCCCn1c(=O)c2c(ncn2C)n(C)c1=O", "Bacterial Biotransformation": "Compound NOT metabolized"}
{"Molecule": "CC(C)c1c(CN(C)C(C)Cc2ccccc2)n(C)n(-c2ccccc2)c1=O (stereo not drawn)", "Bacterial Biotransformation": "Compound metabolized"}
{"Molecule": "CC1Cc2ccccc2N1NC(=O)c1ccc(Cl)c(S(N)(=O)=O)c1 (stereo not drawn) [INDAPAMIDE]", "Bacterial Biotransformation": "Compound NOT metabolized"}
{"Molecule": "CCCC(=O)Nc1ccc(OCC(O)CNC(C)C)c(C(C)=O)c1 (stereo not drawn)", "Bacterial Biotransformation": "Compound NOT metabolized"}
{"Molecule": "CNC(=C[N+](=O)[O-])NCCSCc1csc(CN(C)C)n1", "Bacterial Biotransformation": "Compound NOT metabolized"}

## Task Name the recorded Bacterial Biotransformation for Cc1nc(-c2ccc(OCC(C)C)c(C#N)c2)sc1C(=O)O .
## Result Compound metabolized

## Task I am curious: what Bacterial Biotransformation value has been reported for CC(=O)OCC(=O)[C@@]1(OC(C)=O)[C@@H](C)C[C@H]2[C@@H]3C[C@H](F)C4=CC(=O)C=C[C@]4(C)[C@@]3(F)[C@@H](O)C[C@@]21C [DIFLORASONE DIACETATE] ?
## Result Compound metabolized
